# System: SK-MEL-2 melanoma
# Assay info: NCI tumour cell line growth inhibition, 48 h
Readout kind: TGI (µM)
Give just the numeric value; µM need not be written.

Incoming: Recall and state the measured TGI for CC/C(Cl)=N\OC(=O)Nc1ccc(F)c(Cl)c1 .
Outgoing: 33.5

Incoming: Recall and state the measured TGI for CCN1CCN(Cc2ccc(NC(=O)Nc3nc(-c4cc(OC)c(OC)c(OC)c4)cs3)cc2C(F)(F)F)CC1 .
Outgoing: 3.61

Incoming: Recall and state the measured TGI for CCCCCN1C(=O)C(Cc2ccccc2)N=C(c2ccc(O)cc2)c2cc(Cl)ccc21 (stereo unspecified) .
Outgoing: 34.4

Incoming: Recall and state the measured TGI for COc1cc2cc(C(=O)N3CC(CCl)c4ccc(NO)cc43)[nH]c2c(OC)c1OC (stereo unspecified) .
Outgoing: 0.325

Incoming: Recall and state the measured TGI for COc1ccc(C[C@H]2COC(=O)[C@@H]2Cc2ccc(Br)cc2)cc1OC .
Outgoing: 51.8

Incoming: Recall and state the measured TGI for CC1(C)CC[C@]23CC[C@]4(C)[C@H](CC[C@@H]5[C@@]6(C)CCCNC(C)(C)[C@@H]6CC[C@]54C)[C@H]2[C@H]1OC3 .
Outgoing: 4.09

Incoming: Recall and state the measured TGI for CCOC(=O)C(C(=O)OCC)c1cc(-c2cc3ccccc3o2)oc(=O)c1C#N .
Outgoing: 38.2

Incoming: Recall and state the measured TGI for COc1ccc(OC(=O)N2C/C(=C\c3ccccc3)C(=O)/C(=C/c3ccccc3)C2)cc1 .
Outgoing: 45.6

Incoming: Recall and state the measured TGI for COc1ccc2c(c1)OCC1c3cc(OC)c4ccccc4c3OC21 (stereo unspecified) .
Outgoing: 77.7

----------
# Tested on: HCC-2998 colon
# Assay info: NCI tumour cell line growth inhibition, 48 h; in the data active means GI50 below about 0.43 µM; inactive means the rest
Return exactly one item of yes (1) (active), no (0) (inactive)

Incoming: How was Cc1[nH]c(C(=O)Nc2cccc(OC3CCNCC3)c2)c(Cl)c1Cl classified in this test?
Outgoing: no (0)

Incoming: How was CCN1C(=O)/C(=c2\sc3n(c2=O)C2C(NN=3)N(CC)C(=O)N2CC)c2ccccc21 (stereo not drawn) classified in this test?
Outgoing: no (0)

Incoming: How was COC(=O)C1C(C(=O)O)C2(c3ccccc3)C(=O)C1(c1ccccc1)C(c1ccc(OC)cc1)=C2c1ccc(OC)cc1 (stereo not drawn) classified in this test?
Outgoing: no (0)

Incoming: How was CCc1ccc(Oc2c(-c3ccc(OCCc4cccc(C(F)(F)F)c4)cc3O)n[nH]c2C(F)(F)F)cc1 classified in this test?
Outgoing: no (0)

Incoming: How was COc1ccc(C2=C(c3ccccc3)C(=O)N3CCCC3C2)cc1 (stereo not drawn) classified in this test?
Outgoing: no (0)

Incoming: How was O=C(/C=C(/C=C/c1cccc2[nH]ccc12)OB(F)F)/C=C/c1cccc2[nH]ccc12 classified in this test?
Outgoing: no (0)

Incoming: How was Cc1cc(O)ccc1C1(c2ccc(O)cc2C)OC(=O)c2ccccc21 classified in this test?
Outgoing: no (0)

Incoming: How was COc1ccc2c(c1)OCC1c3cc(OC)c4ccccc4c3OC21 (stereo not drawn) classified in this test?
Outgoing: no (0)

Incoming: How was CCCCCOC(=O)Nc1nc(=O)n(C2OC(C)C(O)C2O)cc1F (stereo not drawn) classified in this test?
Outgoing: no (0)

Incoming: How was C=C(C(=O)c1ccccc1)C(NC(C)(C)C)c1ccccc1 (stereo not drawn) classified in this test?
Outgoing: no (0)

Incoming: How was CCN1CCN(Cc2ccc(Nc3ncc(F)c(-c4cc(F)c5nc(C)n(C(C)C)c5c4)n3)nc2)CC1 classified in this test?
Outgoing: no (0)

Incoming: How was C[n+]1cccc(NC(=O)c2ccc3ccc4ccc(C(=O)Nc5ccc[n+](C)c5)nc4c3n2)c1 classified in this test?
Outgoing: no (0)

Incoming: How was CC[O-].CC[O-].O=C1C=C([O-])C(=O)c2ccccc21.O=C1C=C([O-])C(=O)c2ccccc21.[Ti+4] classified in this test?
Outgoing: no (0)

Incoming: How was COc1ccc(-c2nc3sccn3c2-c2ccnc(NCCNS(=O)(=O)c3ccc(C(F)(F)F)cc3)n2)cc1 classified in this test?
Outgoing: no (0)

Incoming: How was COc1ccc(OC)c(C2=C(c3cn(C)c4ccccc34)C(=O)NC2=O)c1 classified in this test?
Outgoing: no (0)

Incoming: How was CS(=O)(=O)Nc1cc(-c2ccc3ncc(C#N)c(Nc4ccc(F)c(Cl)c4)c3c2)cnc1Cl classified in this test?
Outgoing: yes (1)

Incoming: How was CCCCCCCCCN=C(N)c1ccc(N2CCN(c3ccc(C(N)=NCCCCCCCCC)cc3)CC2)cc1 classified in this test?
Outgoing: no (0)

Incoming: How was Cn1c2c(c3ccccc31)CCN1C[C@@H]3CCCC[C@H]3C[C@@H]21 classified in this test?
Outgoing: no (0)

----------
# Tested on: SN12C renal
# Assay info: NCI tumour cell line growth inhibition, 48 h
Record form. Attribute: TGI. Fill in for each entry.

Incoming: Recall and state the measured TGI for COc1cc(-c2nc(N)c(C#N)c3c2CCS(=O)(=O)c2ccc(C)cc2-3)cc(OC)c1OC .
Outgoing: > 100 µM

Incoming: Recall and state the measured TGI for NS(=O)(=O)c1ccc(N=Nc2c(O)[nH]c3ccc(C(=O)NCCCn4ccnc4)cc23)cc1 .
Outgoing: > 25 µM

Incoming: Recall and state the measured TGI for NC(=O)C1=C(O)[C@@]2(O)C(=O)C3=C(O)c4c(O)cccc4CC3C[C@H]2CC1=O (some centres undefined) .
Outgoing: 14.5 µM

Incoming: Recall and state the measured TGI for CC(C)CC(N)C(=O)NC(CNC(CCC(N)=O)C(=O)NC(CC(C)C)C(=O)NC(CC(C)C)C(=O)O)Cc1ccc2ccccc2c1 (centres undefined) .
Outgoing: > 10 µM

Incoming: Recall and state the measured TGI for C=C1N(C)c2ccc(S(=O)(=O)c3ccc4c(c3)C(C)(C)C(=C)N4C)cc2C1(C)C .
Outgoing: > 100 µM

Incoming: Recall and state the measured TGI for C/C(=C\[Si](C)(C)c1ccco1)C(C)(O)[C@H](C)O (some centres undefined) .
Outgoing: > 100 µM

Incoming: Recall and state the measured TGI for CC(C)c1cnc(-c2cc(Cl)ccc2F)cc1Nc1ccncc1C(=O)NC(CO)CO .
Outgoing: 23.7 µM

Incoming: Recall and state the measured TGI for CCOC(=O)C1=C(C)NC2SC(=O)/C(=C\c3cccc(Cl)c3)N2C1c1ccccc1 (centres undefined) .
Outgoing: > 100 µM

Incoming: Recall and state the measured TGI for COc1ccc(S(=O)(=O)N/N=C(\C)CN2C(=O)c3ccccc3C2=O)cc1OC .
Outgoing: > 100 µM

----------
# Tested on: 786-0 renal
# Assay info: NCI tumour cell line growth inhibition, 48 h
Readout kind: TGI

Incoming: For 786-0 renal, give TGI of the listed molecule: Cc1ccc(NC(=O)c2cccc(OP(=O)(Nc3ccc(C)cc3)Nc3ccc(C)cc3)c2)cc1
Outgoing: > 100 µM

Incoming: For 786-0 renal, give TGI of the listed molecule: CC[C@]12C=CCN3CC[C@@]4(c5ccc(OC)cc5N(C)[C@H]4[C@@](O)(C(=O)OC)[C@@H]1OC(=O)CCC(=O)O[C@H]1CC[C@H]4[C@@H]5CCC6=CC(=O)CC[C@@H]6[C@H]5CC[C@]14C)[C@@H]32
Outgoing: > 50 µM

Incoming: For 786-0 renal, give TGI of the listed molecule: O=c1[nH][nH]c(=O)n1Cc1ccccc1
Outgoing: > 100 µM

Incoming: For 786-0 renal, give TGI of the listed molecule: COC(C)=NCCC1=CCCCC1
Outgoing: > 100 µM

Incoming: For 786-0 renal, give TGI of the listed molecule: c1cc2c(cc1C1OCC3C(c4ccc5c(c4)OCO5)OCC13)OCO2 (stereo not given)
Outgoing: > 100 µM

----------
# Test system: MCF7 breast
# Assay info: NCI tumour cell line growth inhibition, 48 h
Readout kind: TGI

Incoming: Recall and state the measured TGI for CS(=O)(=O)Nc1cc(-c2ccc3ncc(C#N)c(Nc4ccc(F)c(Cl)c4)c3c2)cnc1Cl .
Outgoing: > 100 µM

Incoming: Recall and state the measured TGI for COc1ccc(-c2nc3sccn3c2-c2ccnc(NCCNS(=O)(=O)c3ccc(C(F)(F)F)cc3)n2)cc1 .
Outgoing: > 100 µM

Incoming: Recall and state the measured TGI for COc1ccccc1CNCCCN1C(=O)c2ccc3c4c(ccc(c24)C1=O)C(=O)N(CCCNCCCCNCCCN)C3=O .
Outgoing: 0.466 µM

Incoming: Recall and state the measured TGI for COc1ccc(COCC[C@H](C)OC2OC(CO[Si](C)(C)C(C)(C)C)C(O)C(O)C2O)cc1 (some centres undefined) .
Outgoing: > 100 µM

Incoming: Recall and state the measured TGI for CO[P@@]1(=O)O[C@@H](c2ccccc2)[C@H](O)[C@@]1(O)c1ccccc1 .
Outgoing: > 100 µM

Incoming: Recall and state the measured TGI for C/C(=C\[Si](C)(C)c1ccco1)C(C)(O)[C@H](C)O (some centres undefined) .
Outgoing: > 100 µM

Incoming: Recall and state the measured TGI for COC(=O)C1c2cc3c(c(O)c2CCC1(C)O)C(=O)c1c(O)cc2c(c1C3=O)OC1OC2(C)C(O)C(N(C)C)C1O (centres undefined) .
Outgoing: 2.5 µM

Incoming: Recall and state the measured TGI for O=C(O)c1ccc(CSc2nc3ccccc3[nH]2)cc1 .
Outgoing: > 100 µM

Incoming: Recall and state the measured TGI for CCOC(=O)/C(=C\c1c[nH]c2ccccc12)P(=O)(OCC)OCC .
Outgoing: > 100 µM

Incoming: Recall and state the measured TGI for CN1C(=O)C(N=Nc2ccc([N+](=O)[O-])cc2)SC1=S (centres undefined) .
Outgoing: > 100 µM

Incoming: Recall and state the measured TGI for COc1ccc(OC(=O)N2C/C(=C\c3ccccc3)C(=O)/C(=C/c3ccccc3)C2)cc1 .
Outgoing: 4.77 µM

Incoming: Recall and state the measured TGI for C=C(C)[C@@H]1CC[C@]2(C(=O)O)CC[C@]3(C)[C@H](CC[C@@H]4[C@@]5(C)C/C(=C/c6ccco6)C(=O)C(C)(C)[C@@H]5CC[C@]43C)[C@@H]12 .
Outgoing: 10.7 µM

Incoming: Recall and state the measured TGI for O=C1NC(c2ccc3ccccc3c2)Nc2ccccc21 (centres undefined) .
Outgoing: > 100 µM

Incoming: Recall and state the measured TGI for Clc1nc(Cl)c2ncn(-c3ccccc3)c2n1 .
Outgoing: 24.3 µM

Incoming: Recall and state the measured TGI for COC(=O)[C@]12CC[C@H]3CN(S(=O)(=O)c4ccc(C)cc4)[C@H]([C@H]31)[C@H](c1ccco1)N2S(=O)(=O)c1ccc(C)cc1 .
Outgoing: > 100 µM

Incoming: Recall and state the measured TGI for COC1(OC)CCN(Cc2ccccc2)C1=O .
Outgoing: 25.3 µM

Incoming: Recall and state the measured TGI for C=CC(C)(C)NC(C(=O)N1CCC[C@H]1c1nc(-c2nc(C(=O)OCC=C(C)C)c(C)o2)c(C)o1)C(C)C (some centres undefined) .
Outgoing: > 82.8 µM

Incoming: Recall and state the measured TGI for CC1(C)N=C(N)N=C(N)N1c1ccc(OCC(=O)Nc2ccc(S(=O)(=O)F)cc2Cl)c(Cl)c1 .
Outgoing: > 100 µM

Incoming: Recall and state the measured TGI for CC(=O)Oc1ccc(C2OC(c3ccc4ccccc4c3OC(C)=O)=NN2C(C)=O)c(OC(C)=O)c1 (centres undefined) .
Outgoing: > 38.6 µM
